Target: T1, Lrp6E3E4 domain (Homo sapiens, UniProt O75581)
T1 sequence (O75581 631-1244 limits assumed): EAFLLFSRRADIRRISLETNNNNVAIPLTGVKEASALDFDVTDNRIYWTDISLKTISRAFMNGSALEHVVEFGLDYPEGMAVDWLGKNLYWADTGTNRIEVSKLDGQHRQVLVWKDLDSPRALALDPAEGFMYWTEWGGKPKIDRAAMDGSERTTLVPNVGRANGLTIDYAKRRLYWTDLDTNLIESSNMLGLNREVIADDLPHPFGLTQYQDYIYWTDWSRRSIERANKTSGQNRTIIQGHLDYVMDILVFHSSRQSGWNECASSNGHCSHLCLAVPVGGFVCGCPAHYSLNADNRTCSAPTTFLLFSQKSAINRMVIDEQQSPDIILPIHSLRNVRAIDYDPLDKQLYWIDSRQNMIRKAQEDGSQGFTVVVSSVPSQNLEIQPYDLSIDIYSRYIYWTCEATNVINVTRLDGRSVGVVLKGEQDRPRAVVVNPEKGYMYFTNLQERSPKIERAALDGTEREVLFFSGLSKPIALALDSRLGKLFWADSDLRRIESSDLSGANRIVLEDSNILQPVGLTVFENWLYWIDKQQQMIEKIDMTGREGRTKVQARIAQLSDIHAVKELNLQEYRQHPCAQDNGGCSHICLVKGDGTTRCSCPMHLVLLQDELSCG
Experiment: Bio-layer interferometry (Octet) binding kinetics of VHH26 constructs
Conditions: SEC fraction C3/G3 (parental D3); 1:1 binding model
Provide the recorded kon for the entries that follow.
Numbers only.

Known results for molecules:
molecule	measurement_name	quantitative_readout
VHH26-H1: humanized variant of LRP6 binding VHH26, SEQ ID NO: 19 (protein, VHH26_H1) VHH: EVQLLESGGGLVQPGGSLRLSCAASGRIFAIYDIAWVRQAPGKGLEWVSMIRPVVTEIDYADSVKGRFTISRDNSKNTLYLQMNSLRAEDTAVYYCAKKRPWGSRDEYWGQGTTVTVSS	kon	1.42E+04
VHH26-H4: humanized variant of LRP6 binding VHH26, SEQ ID NO: 22 [VHH26-H4] (protein, VHH26_H4) VHH: EVQLVESGGGLVQPGGSLRLSCAGSGRIFAIYDIAWYRQAPGKGRELVAMIRPVVTEIDYADSVKGRFTISRDNSKNTVYLQMNSLRAEDTAVYYCNAKRPWGSRDEYWGQGTTVTVSS	kon	2.90E+04

I would be grateful if you could provide kon for each of the following entries.
1. VHH26-H2: humanized variant of LRP6 binding VHH26, SEQ ID NO: 20 (protein, VHH26_H2) VHH: EVQLVESGGGLVQPGGSLRLSCAGSGRIFAIYDIAWYRQAPGKGLEWVAMIRPVVTEIDYADSVKGRFTISRDNSKNTVYLQMNSLRAEDTAVYYCNAKRPWGSRDEYWGQGTTVTVSS
2. VHH26-H6: humanized variant of LRP6 binding VHH26, SEQ ID NO: 24 [VHH26-H6] (protein, VHH26_H6) VHH: EVQLVESGGGLVQPGGSLRLSCAGSGRIFAIYDIAWYRQAPGKGRELVAMIRPVVTEIDYADSVKGRFTISRDNSKKTVYLQMNSLRAEDTAVYYCNAKRPWGSRDEYWGQGTTVTVSS
3. VHH26-H5: humanized variant of LRP6 binding VHH26, SEQ ID NO: 23 (protein, VHH26_H5) VHH: EVQLVESGGGLVQPGGSLRLSCAGSGRIFAIYDIAWYRQAPGKGREWVAMIRPVVTEIDYADSVKGRFTISRDNSKKTVYLQMNSLRAEDTAVYYCNAKRPWGSRDEYWGQGTTVTVSS

Given back:
1. 2.44E+05
2. 1.72E+04
3. 1.35E+05
